Some compounds, each annotated with its measured Selectivity ratio II/XII.
Tested target: human CA XII (Homo sapiens)
Sequence (O43570 25-354): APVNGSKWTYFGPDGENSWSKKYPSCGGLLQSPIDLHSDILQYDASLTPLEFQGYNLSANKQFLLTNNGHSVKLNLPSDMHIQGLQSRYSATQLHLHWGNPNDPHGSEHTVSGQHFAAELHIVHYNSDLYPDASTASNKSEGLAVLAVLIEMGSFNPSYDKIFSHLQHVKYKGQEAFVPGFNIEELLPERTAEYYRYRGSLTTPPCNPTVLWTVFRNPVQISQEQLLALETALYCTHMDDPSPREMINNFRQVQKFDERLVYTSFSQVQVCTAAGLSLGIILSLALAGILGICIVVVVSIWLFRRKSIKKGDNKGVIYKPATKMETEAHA
Method notes: stopped-flow CO2 hydrase assay, CA XII
Assay setup: ratio of Ki CA II / CA XII

Cc1cc(=O)oc2cc(OCCCCCCNc3nc4ccccc4o3)ccc12 = >153.6
O=c1cc(-c2ccccc2)c2ccc(OCCCCCCNc3nc4ccccc4o3)cc2o1 = >31.6

// Selectivity ratio II/XII lookup, compound = `Cc1ccc2oc(NCCCCCOc3ccc4c(C)cc(=O)oc4c3)nc2c1` , result: >148.6

// Selectivity ratio II/XII lookup, compound = `Cc1c(Cl)c(=O)oc2cc(OCCCCCCNc3nc4ccccc4o3)ccc12` , result: >132.1

// Selectivity ratio II/XII lookup, compound = `Cc1cc(=O)oc2cc(OCCCCCNc3nc4ccccc4o3)ccc12` , result: >118.3

====

Some compounds, each annotated with its measured GI50.
Test system: WiDr (colon)
Method notes: antiproliferative assay (NCI protocol), WiDr
Type: cell-based, human
Assay setup: Homo sapiens, WiDr; antiproliferative activity, multidrug-resistant line
Method: The antiproliferative assays were conducted following the protocol of the US National Cancer Institute (NCI), with minor modifications. The coumarin-benzoxazole hybrids were also tested as antiproliferative agents against a panel of six human solid tumour cell lines (Table 2): A549 (non-small cell lung), HBL-100 (breast), HeLa (cervix), SW1573 (non-small cell lung) as examples of drug-sensitive lines, and T-47D (breast) and WiDr (colon) as multidrug-resistant lines. […]
Provide the reading as a plain figure in µM.

Cc1cc(=O)oc2cc(OCCCCCNc3nc4ccccc4o3)ccc12 [Compound 8b] = 33
Cc1cc(=O)oc2cc(OCCCNc3nc4ccccc4o3)ccc12 [Compound 8a] = 37
Cc1cc(=O)oc2cc(OCCCCCNc3nc4cc(Br)ccc4o3)ccc12 [Compound 8h] = 29
O=c1[nH]cc(F)c(=O)[nH]1 [5-Fluorouracil, reference compound] = 49
Cc1cc(=O)oc2cc(OCCCCCNc3nc4cc(S(N)(=O)=O)ccc4o3)ccc12 [Compound 8j] = 29

// GI50 lookup, compound = Cc1c(Cl)c(=O)oc2cc(OCCCCCCNc3nc4ccccc4o3)ccc12 [Compound 8e] , result: 4.2

// GI50 lookup, compound = Cc1cc(=O)oc2cc(OCCCCCNc3nc4cc(-c5ccccc5)ccc4o3)ccc12 [Compound 8i] , result: 78

====

Tested target: human CA IX (Homo sapiens, UniProt Q16790)
Metric name: Ki (nM)

Cc1cc(=O)oc2cc(OCCCCCNc3nc4cc(S(N)(=O)=O)ccc4o3)ccc12 = 90.7

(1) Cc1cc(=O)oc2cc(OCCCCCNc3nc4ccccc4o3)ccc12
(2) O=c1cc(-c2ccccc2)c2ccc(OCCCCCCNc3nc4ccccc4o3)cc2o1
Query block: I would appreciate it if you could say which entry, 1 or 2 , has the lower Ki value. Selection: enter the item's label.
Result block: 1
(1: 70.7 nM, 2: 271 nM)
